Recorded values, source ChEMBL document CHEMBL1201862.

System: UACC-62
Experiment Summary: NCI tumour cell line growth inhibition, 48 h
Activity calls are given as the source filed them. Rule as the data show it: active = GI50 up to about 1.1 µM and inactive = higher.
Consider the following molecules and their measured GI50 readings.

Reference set (6 entries):
CCOC(=O)C(=O)NC12CC3CC(CC(C3)C1)C2 : > 100 µM (inactive)
CN(C)c1nc(N(C)C)nc(N(C)C23CC4CC(CC(C4)C2)C3)n1 : 56.8 µM (inactive)
COc1ccc(OCC(=O)O)c(C(=O)CCC(=O)O)c1 : > 10 µM (inactive)
S=C(NCCc1ccccn1)c1nc[nH]c1C(=S)NCCc1ccccn1 : 22.7 µM (inactive)
CC(C)C(C=O)C(O)(C(F)(F)F)C(F)(F)F (stereo not drawn) : > 100 µM (inactive)
C=C(C)CC1=C(C(=S)NCCO[Si](C)(C)C(C)(C)C)C(OCC)(OCC)C1=O : 17.7 µM (inactive)

Field request: GI50 | item: "COC(=O)n1c(CBr)c(Br)c2ccccc21"
28.1 µM (inactive)

Bench note: what GI50 did "NC(=O)c1ccccc1[N+](=O)[O-]" show?
> 100 µM (inactive)

Entry under review: "COc1ccc(S(=O)(=O)N(C)CC(=O)O)cc1" . Reported GI50?
> 100 µM (inactive)
